test: gradient 5% acetonitrile 3 min, to 50% in 2 min, to 85% in 15 min, held 3 min, 100 µL/min; details: column: Zorbax Extend-C18 2.1 x 50 mm; eluents: water / acetonitrile, 0.1% formic acid
test readout: RP-LC retention time (s)

Please review the following examples before continuing.
Cc1ccc(NC(=O)N2CC(N(Cc3ccncc3)CC(C)C)C2)cc1F
705
CC(C)c1nc(-c2ccc(C(=O)NCc3noc(COc4ccccc4)n3)cc2)no1
998
Cc1ccc(NC(=O)NC2CCN(c3ccccc3)C2=O)c(C)c1 (stereo unspecified)
823
COc1ccc(C2OC(c3cc(Cl)ccc3OC(C)=O)=NN2C(C)=O)cc1 (stereo unspecified)
956
N#Cc1cccc(C(=O)NC2CCN(c3cc(-c4ccccc4)[nH]n3)C2)c1 (stereo unspecified)
691
CCOc1cccc(-c2noc(-c3nn(-c4ccc(OC)cc4)ccc3=O)n2)c1
938
O=C(Cn1cnc2ccccc21)NCCNc1cc(-n2cccn2)ncn1
550
COc1ccc2nc(C(=O)NCc3cc(F)ccc3F)cn2n1
823
Cc1ccc(NC(=O)Cn2ncc3c(c2=O)N(CC2CC2)C(=O)CS3)cc1C
812
Cc1nc2cc(N3CCCC(C(=O)NCc4ccc(N(C)C)cc4)C3)cnc2nc1C (stereo unspecified)
586

[a] Cc1noc(C)c1S(=O)(=O)N1CCc2nc[nH]c2C1
[b] O=C(Nc1ccc2c(c1)OCCO2)N1CCC(OCCOc2ccccc2)CC1
[c] CCn1c(C(=O)Nc2ccc(C)c(C)c2)cc2sc(Cl)cc21
Prompt: Ordering criterion: RP-LC retention time; begin with the maximum. List each label, following the requested order.
Completion: c, b, a
(c: 1300 s, b: 891 s, a: 570 s)

====

assay: gradient 5% acetonitrile 3 min, to 50% in 2 min, to 85% in 15 min, held 3 min, 100 µL/min; conditions: column: Zorbax Extend-C18 2.1 x 50 mm; eluents: water / acetonitrile, 0.1% formic acid
test readout: RP-LC retention time (s)

COc1cccc(NC(=O)C2CCN(S(=O)(=O)c3ccc4c(c3)CCCC(=O)N4)CC2)c1
755
O=C(c1cccc2c1CCN2C(=O)c1ccc(F)cc1)N1CCCCC1
854
Cc1ccc2c(Nc3cc(F)cc(F)c3)c(C(=O)N3CCCC3)cnc2n1
615
Cc1nc2cc3c(cc2n1CC(=O)NCc1ccc(F)cc1)OCCO3
636
Cc1ccccc1NC(=O)C1(C)Oc2cccnc2NC1=O (stereo unspecified)
673
Cc1cc(C)cc(NC(=O)N2CCN(c3cc(-c4cccnc4)[nH]n3)CC2)c1
644
COc1cc(CNC(=O)c2cn3cc(C)ccc3n2)cc(OC)c1
604
COc1ccc(S(=O)(=O)NCCc2cn(C)c3ncccc23)cc1Cl
760
COc1ccc(OC)c(NC(=O)C2C(=O)NC3(C)CC2c2ccccc2O3)c1 (stereo unspecified)
875
COc1ccc(Cn2nc3ccc(S(=O)(=O)N4CCCC4)cn3c2=O)cc1
827
CN1C(=O)c2cc(C(=O)NCCCN3CCCC3)nn2CC1(C)C(=O)NCc1ccccc1 (stereo unspecified)
589
CN1C(=O)[C@H]2CN(Cc3cccc(OC(F)(F)F)c3)C[C@H]2C1=O
682
Cc1c(CNCCN(C)C)c(C(=O)O)c(C)n1Cc1ccccc1F
591
O=C(NCC1CCN(C2CCCC2)CC1)C(=O)Nc1ccc(OC(F)(F)F)cc1
611
CN1C(=O)[C@H]2CN(Cc3ccc(Cl)cc3F)C[C@H]2C1=O
644
COc1ccc(-c2nc3cnccn3c2Nc2c(C)cccc2C)cc1OC
784

====

assay: gradient 5% acetonitrile 3 min, to 50% in 2 min, to 85% in 15 min, held 3 min, 100 µL/min; conditions: column: Zorbax Extend-C18 2.1 x 50 mm; eluents: water / acetonitrile, 0.1% formic acid
test readout: RP-LC retention time (s)

O=S(=O)(c1ccc(Cl)cc1)N1CCN(c2cnn3c(C4CC4)nnc3c2)CC1
749
O/N=C(/c1ccccc1)c1ccc2c3c(cccc13)CC2
1140
O=C(C1=CN(c2ccc(Oc3ccccc3)cc2)c2cc(F)ccc2S1(=O)=O)N1CCOCC1
958

====

assay: gradient 5% acetonitrile 3 min, to 50% in 2 min, to 85% in 15 min, held 3 min, 100 µL/min; details: column: Zorbax Extend-C18 2.1 x 50 mm; eluents: water / acetonitrile, 0.1% formic acid
test readout: RP-LC retention time (s)

CCOc1ccc(-c2ccc(=O)n(Cc3nc(-c4ccccn4)no3)n2)cc1
813
Cc1cccc(CNC(=O)c2cn3cc(C)ccc3n2)c1
708
Cc1cccc(CN2N=C(C(=O)N3CCCCC3)S(=O)(=O)c3ccccc32)c1
1010
COCCc1noc(-c2cnc3nc(C)ccc3c2Nc2ccc(OC)cc2)n1
681
O=C(Nc1ccc(OCc2nnc(-c3ccccc3)o2)cc1)c1cnccn1
832
Cc1cc(C)cc(NC(=O)N2CCCC2c2nc(-c3ccccc3)no2)c1 (stereo unspecified)
922
CCC(c1cccs1)N1C(=O)[C@H]2CN(S(=O)(=O)c3cccnc3)C[C@H]2C1=O (stereo partly specified)
824
Cc1cccc(C(=O)N2CCc3cc(CNC(=O)c4cc(-c5cccs5)[nH]n4)ccc32)c1
895
CC(C)CC(=O)N1CCCC(c2nc(CNC(=O)C(C)C)cs2)C1 (stereo unspecified)
705
Cc1ccc(NC(=O)CCCN2C(=O)COc3ccc(C)cc32)c(C)c1
929
Cc1cc(S(=O)(=O)N2CCC(n3cnnc3-c3ccccc3)CC2)ccc1Cl
869

====

assay: gradient 5% acetonitrile 3 min, to 50% in 2 min, to 85% in 15 min, held 3 min, 100 µL/min; conditions: column: Zorbax Extend-C18 2.1 x 50 mm; eluents: water / acetonitrile, 0.1% formic acid
test readout: RP-LC retention time (s)

O=C(Cn1nc(N2CCOCC2)c2ccccc2c1=O)Nc1cccc(Cl)c1
846
Cc1cccc(NC(=O)Cn2cnc3onc(C)c3c2=O)c1C
754
Cc1cccc(-c2noc(C3CCCN3C(=O)c3ccc4c(c3)OCO4)n2)c1 (stereo not drawn)
997

====

assay: gradient 5% acetonitrile 3 min, to 50% in 2 min, to 85% in 15 min, held 3 min, 100 µL/min; settings: column: Zorbax Extend-C18 2.1 x 50 mm; eluents: water / acetonitrile, 0.1% formic acid
test readout: RP-LC retention time (s)

CCc1ccc(NS(=O)(=O)c2cc(-c3[nH]ncc3C(=O)N3CCOCC3)oc2C)cc1
721
Cc1cc(C2CCCN2C(=O)Cc2cccc(Cl)c2)no1 (stereo not drawn)
816
CCc1ccc(CNC(=S)Nc2ccc3nc(N4CCN(C)CC4)cc(C)c3c2)cc1
641
O=C(NC1CCCCCC1)c1cccnc1N1CCNC(c2ccccc2)C1 (stereo not drawn)
656
O=C(N[C@@H]1CN(Cc2ccsc2)CC[C@@H]1CO)c1ccccc1
591
O=c1c2sccc2n(Cc2nc(-c3ccc(C(F)(F)F)cc3)no2)c(=O)n1-c1ccc(F)cc1
1080
CCOCCCNC(=O)C1CCN(C2=NS(=O)(=O)C(c3ccc(C(C)C)cc3)=C2C)CC1
858
CC(=O)N1CCC(C(=O)N2CCC3(CC2)NCc2ccccc2-n2ccnc23)CC1
564
CC(C)(C)C(=O)N1CCN(CC(F)(F)F)CC1
746
CCN1CCN(c2c(S(=O)(=O)c3ccc(OC)cc3)cnc3ccc(OC)cc23)CC1
640

[P] Cc1cccc(NC(=O)CN2C(=O)CCS(=O)(=O)c3ccccc32)c1C
[Q] Cc1ccc(-c2noc(-c3cccc(S(=O)(=O)N(C)Cc4ccco4)c3)n2)cc1
Prompt: Smaller RP-LC retention time value? Options are P and Q Mark your selection by writing its label.
Completion: P

====

assay: gradient 5% acetonitrile 3 min, to 50% in 2 min, to 85% in 15 min, held 3 min, 100 µL/min; conditions: column: Zorbax Extend-C18 2.1 x 50 mm; eluents: water / acetonitrile, 0.1% formic acid
test readout: RP-LC retention time (s)

Cc1ccsc1C(=O)N1CCOc2ccc(N3CCOCC3)cc2C1
762
CCS(=O)(=O)c1ccc2c(c1)N(Cc1nc(-c3ccc(OC(C)C)cc3)no1)C(=O)CO2
991
CC(NC(=O)c1cn(C)c2ncccc12)c1cccnc1 (stereo unspecified)
555
Cc1cccc(NC(=O)N2CCc3nc(C)ncc3C2)c1
656
CCn1c(=O)c(SCC(=O)NCCN(C)Cc2ccccc2)nc2ccccc21
641
Cc1c2cnn(CC(=O)NCC3CCCO3)c(=O)c2c(C)n1Cc1ccccc1F (stereo unspecified)
747

====

test: gradient 5% acetonitrile 3 min, to 50% in 2 min, to 85% in 15 min, held 3 min, 100 µL/min; details: column: Zorbax Extend-C18 2.1 x 50 mm; eluents: water / acetonitrile, 0.1% formic acid
test readout: RP-LC retention time (s)

Cc1ccc(NS(=O)(=O)c2cc3n(c2)CCCNC3=O)c(Cl)c1
686
O=C(NC1CCCCC1)c1ncoc1-c1ccccc1C(=O)N1CCCC1
798
CC(C)NC(=O)c1ccc(-c2nc3cc(NS(=O)(=O)c4cc(F)ccc4F)ccc3n2C)cc1
705
